Target: human orexin-1 receptor (Homo sapiens)
Construct: expressed in transfected cells; host or cells: Chinese hamster ovary (CHO) cells, G418 selection
Sequence (O43613 whole entry): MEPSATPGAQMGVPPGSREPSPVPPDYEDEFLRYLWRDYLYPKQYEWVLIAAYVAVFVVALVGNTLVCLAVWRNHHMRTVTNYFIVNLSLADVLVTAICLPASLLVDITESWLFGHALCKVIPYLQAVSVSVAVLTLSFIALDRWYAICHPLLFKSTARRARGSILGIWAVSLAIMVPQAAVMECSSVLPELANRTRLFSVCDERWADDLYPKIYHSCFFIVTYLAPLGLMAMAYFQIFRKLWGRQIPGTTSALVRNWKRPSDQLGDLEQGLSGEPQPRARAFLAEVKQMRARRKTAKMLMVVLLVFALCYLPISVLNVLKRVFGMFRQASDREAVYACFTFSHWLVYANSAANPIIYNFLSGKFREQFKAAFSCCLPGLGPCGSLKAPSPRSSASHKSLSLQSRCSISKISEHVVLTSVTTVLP
Experiment: Intracellular calcium measurements (FLIPR), orexin receptor antagonistic activity
Assay type: cell-based
Conditions: FLIPR2; CHO cells expressing human orexin-1 receptor; 3 nM orexin-A; read-out: OX1 IC50
pIC50: −log10 of the molar value.
property-name: pIC50

smiles-string	system	pIC50
Cc1cccc(-c2sc(C)nc2C(=O)N2C[C@@H]3C[C@@H]3[C@H]2CNC(=O)c2c(C)noc2C)c1	human orexin-1 receptor (Homo sapiens)	7.09

P: Cc1cccc(-c2sc(C)nc2C(=O)N2C[C@@H]3C[C@@H]3[C@H]2CNC(=O)c2n[nH]c3ccccc23)c1
Q: Nc1nc(C(=O)N2C[C@@H]3C[C@@H]3[C@H]2CNC(=O)c2cnc3ccccn23)c(-c2cccc(F)c2)s1
## Input Which entry has a larger number for pIC50, P or Q ? Select an item and report its label.
## Output P
